Reported NT50 values follow for various binders
MEASURED TARGET: T1, Marburg virus Angola GP on rVSV pseudotype (Marburg virus, Angola strain, UniProt Q1PD50 19-681)
T1 sequence: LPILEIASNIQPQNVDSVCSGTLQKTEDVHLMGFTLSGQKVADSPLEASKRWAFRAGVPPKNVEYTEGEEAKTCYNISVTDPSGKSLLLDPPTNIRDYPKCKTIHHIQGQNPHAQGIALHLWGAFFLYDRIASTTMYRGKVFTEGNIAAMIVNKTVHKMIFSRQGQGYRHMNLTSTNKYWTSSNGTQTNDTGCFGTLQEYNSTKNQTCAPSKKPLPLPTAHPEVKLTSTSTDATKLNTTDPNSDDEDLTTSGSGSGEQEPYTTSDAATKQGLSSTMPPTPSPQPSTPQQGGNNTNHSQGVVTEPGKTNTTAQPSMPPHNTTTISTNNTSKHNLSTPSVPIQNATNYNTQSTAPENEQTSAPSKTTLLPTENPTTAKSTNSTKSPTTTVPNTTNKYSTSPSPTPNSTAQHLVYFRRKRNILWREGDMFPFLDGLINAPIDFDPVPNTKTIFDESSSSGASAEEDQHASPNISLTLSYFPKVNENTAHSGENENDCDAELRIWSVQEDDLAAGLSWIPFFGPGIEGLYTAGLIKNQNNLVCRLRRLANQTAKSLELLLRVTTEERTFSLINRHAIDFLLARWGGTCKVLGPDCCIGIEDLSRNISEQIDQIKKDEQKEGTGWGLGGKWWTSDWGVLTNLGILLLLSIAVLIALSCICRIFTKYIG
ASSAY NOTES: cell-based or functional assay
Quick note: give the figure in µg/mL, leave out the unit.

Check out these entries, answers already filled in.
{"BINDER": "R53 (antibody, V domains shown) VH: QVQLQESGPGLVKPSETLSLTCAVSGASISSYWWNWIRQPPGKGLEWIGEIYGYSGSTYYSPSLKSRVTISKDASKNQFSLKLSSATAADTAVYYCVRDPLNQDAFDFWGQGLRVTVSS VL: QSALTQPPSVSGSPGQSVTISCTGTSSDIGSYDYVSWYQQHPGKAPKLMMYDVSKRPSGVFDRFSGSKSGNTASLTISGLQADDEAAYFCSSYAGRRILLFGGGTRLTVL", "UNIT STRING": "µg/mL", "RECORDED VALUE": 0.02}
{"BINDER": "R55 (antibody, V domains shown) VH: QVQLQESGPGLVKPSETLSLTCAVSGDSISSYWWNWIRQPPGKGLEWIGEIYGYSGSTNYNPSLKSRVTISKDASKKQLSLKLSSVTAADTAVYYCARDPLNQDAFDFWGLGLRVTVSS VL: QSALTQPPSVSGSPGQSVTISCTGTSSDIGGYTYVSWYQQHPGKAPKLMIYDVSRRPSGVSDRFSGSKSGNTASLTISGLQAEDEADYYCSSYAGRNALLFGGGTRLTVL", "UNIT STRING": "µg/mL", "RECORDED VALUE": 0.07}
{"BINDER": "R18 (antibody, V domains shown) VH: QVQLQESGPGLVKASETLSLTCAVSGASISSYWWNWIRLSPGKGLEWIGEIYGYSGSTSYKSSLKSRVSISRDASKNQFSLKLTSVTAADTAVYYCARDPLNHDAFDFWGRGLRVTVSS VL: QSALTQPPSVSGSPGQSVTISCAGTSSDIGGYTYVSWYQQHPGKAPKLMIYDVNERPSGVSDRFSGSISGNTASLTISGLQAEDEADYYCSSYAGSKTVLFGGGTRLSVL", "UNIT STRING": "µg/mL", "RECORDED VALUE": 0.04}
{"BINDER": "R13 (antibody, V domains shown) VH: EVQLVESGAGLVQPGGSLRLSCAASGFTFSNSWMTWVRQAPGKGLEWLARIKRKADGETADYAASVKGRFTISRDDSKNTLYLQMNSLKTEDTAVYYCTTYNWNFNFDFWGQGVLVTVSS VL: DIQMTQSPSSLSASVGDRVTITCRASQDISPYLNWYQQKPGKAPKLLIYYGNRLESGVPSRFSGSGSGTDLTLTISSLQPEDFATYYCQQYYRLPLTFGGGTKVETK", "UNIT STRING": "µg/mL", "RECORDED VALUE": 0.03}

Now consider the entry below.
(Q) Record request: NT50 value, item R63 (antibody, V domains shown) VH: QVQLQESGPGLVKASETLSLTCAVSGASISSYWWNWIRLSPGKGLEWIGEIYGYSGSTSYNSSLKSRVSISRDASKNQFSLKLSSVTAADTAVYYCARDPLNHDAFDFWGRGFRVTVSS VL: QSALTQPPSVSGSPGQSVTISCAGTSSDIGGYTYVSWYQQHPGKAPKLMIYDVNERPSGVSDRFSGSKSGNTASLTISGLQAEDEADYYCSSYAGSKTVSFGGGTRLSVL
(A) 0.04
